test system: PRKACA-PRKAR2A interaction (SmBiT-PRKACA / LgBiT-PRKAR2A), protein kinase A; parameters: NanoLuc complementation counter-screen in cell extract, PRKACA with PRKAR2A, loss of luminescence, detects NanoLuc interference; details: counter-screen for NanoLuc interference; 0.5 h, 20 µM; inhibitor
MEASURED ENDPOINT: Inh (PKA)
# answer = value followed by unit

>>> observed_value("CCOC(=O)c1sc(NC(=O)c2ccco2)c(SC#N)c1C")
"28.46%"

Exercise: Short answer please: Inh (PKA), PRKACA-PRKAR2A interaction (SmBiT-PRKACA / LgBiT-PRKAR2A), protein kinase A, entry Cc1cc(C(N)=O)ccc1-n1c(CCC(=O)O)ccc1-c1ccc(-n2ccnc2)cc1
Solution: 4.784%

Exercise: Short answer please: Inh (PKA), PRKACA-PRKAR2A interaction (SmBiT-PRKACA / LgBiT-PRKAR2A), protein kinase A, entry CS(=O)(=O)c1ccc(C(=O)Nc2ccc(Cl)c(-c3ccccn3)c2)c(Cl)c1
Solution: 8.773%

Exercise: Short answer please: Inh (PKA), PRKACA-PRKAR2A interaction (SmBiT-PRKACA / LgBiT-PRKAR2A), protein kinase A, entry CCCS(=O)(=O)Nc1ccc(F)c(C(=O)c2c[nH]c3ncc(Cl)cc23)c1F
Solution: 29.68%

* * *

tested on: PRKACA-PRKAR2A interaction (SmBiT-PRKACA / LgBiT-PRKAR2A), protein kinase A; parameters: NanoLuc complementation counter-screen in cell extract, PRKACA with PRKAR2A, loss of luminescence, detects NanoLuc interference; conditions: counter-screen for NanoLuc interference; 0.5 h, 20 µM; inhibitor
The reader will find reported Inh (PKA) values listed item by item below.
// return numeric value only (unit: %, not printed)

Consider the worked cases shown below.
>>> observed_value("CO[C@H]1/C=C/O[C@@]2(C)Oc3c(C)c(O)c4c(O)c(c5c(nc6cc(C)ccn65)c4c3C2=O)NC(=O)/C(C)=C\\C=C\\[C@H](C)[C@H](O)[C@@H](C)[C@@H](O)[C@@H](C)[C@H](OC(C)=O)[C@@H]1C")
35.34
>>> observed_value("S=c1[nH]cnc2nc[nH]c12")
1.981
>>> observed_value("CN(NC(=O)CC(=O)NN(C)C(=S)c1ccccc1)C(=S)c1ccccc1 [UM0141826:01, Elesclomol (STA-4783)]")
1.652

Exercise: Dear colleague, I am looking for the recorded Inh (PKA) of the following compound: CCCc1cc(C)[nH]c(=O)c1CNC(=O)c1cc(-c2ccnc(N3CCN(C)CC3)c2)cc2c1cnn2C(C)C
Solution: 8.178

Exercise: Dear colleague, I am looking for the recorded Inh (PKA) of the following compound: O=c1[nH]c2ccc(Cl)cc2c(N[C@@H]2CN3CCC2CC3)c1-c1nc2ccccc2[nH]1
Solution: 30.1

Exercise: Dear colleague, I am looking for the recorded Inh (PKA) of the following compound: C[C@@](Cc1ccc(O)c(O)c1)(NN)C(=O)O
Solution: 2.512

Exercise: Dear colleague, I am looking for the recorded Inh (PKA) of the following compound: O=C(Oc1cc(S(=O)(=O)c2ccccc2)ccc1[N+](=O)[O-])c1ccc(Cl)cc1
Solution: 10.87

* * *

tested on: PRKACA-PRKAR2A interaction (SmBiT-PRKACA / LgBiT-PRKAR2A), protein kinase A; parameters: NanoLuc complementation counter-screen in cell extract, PRKACA with PRKAR2A, loss of luminescence, detects NanoLuc interference; conditions: counter-screen for NanoLuc interference; 0.5 h, 20 µM; inhibitor
Where a name gives a salt, the structure may show the parent alone.
The reader will find reported Inh (PKA) values listed item by item below.
// return numeric value only (unit: %, not printed)

Consider the worked cases shown below.
>>> observed_value("C=CC(=O)Nc1cccc(Oc2nc(Nc3ccc(N4CCN(C)CC4)cc3)ncc2Cl)c1 [UM0142142:01, WZ3146]")
33.46
>>> observed_value("CCOC(=O)[C@H](CCc1ccccc1)N[C@H]1CS[C@H](c2cccs2)CN(CC(=O)O)C1=O [UM0142447:01, Temocapril HCl]")
1.04

Exercise: Dear colleague, I am looking for the recorded Inh (PKA) of the following compound: Nc1nc(CC(=O)Nc2ccc(CCNC[C@H](O)c3ccccc3)cc2)cs1 [UM0142057:01, Mirabegron (YM178)]
Solution: 3.158

Exercise: Dear colleague, I am looking for the recorded Inh (PKA) of the following compound: Nc1ccncc1 [UM0119500:03, 4-Aminopyridine]
Solution: 0.4521

* * *

target: MeCP2-TBL1 interaction (MeCP2-SmBiT / TBL1-LgBiT) (Mus musculus, UniProt Q9QXE7); construct: expressed in transfected cells; crude lysate used as a cell-free assay; test: MeCP2-TBL1 NanoLuc luciferase complementation assay (cell-free, extracts of transfected HEK293 cells); assay type: binding, human; settings: primary screen of the Asinex library, sheet "Sargen output Asinex library", one well per compound;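 further: each compound tested at 20 µM final concentration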
Sequence (Q9QXE7 166-527): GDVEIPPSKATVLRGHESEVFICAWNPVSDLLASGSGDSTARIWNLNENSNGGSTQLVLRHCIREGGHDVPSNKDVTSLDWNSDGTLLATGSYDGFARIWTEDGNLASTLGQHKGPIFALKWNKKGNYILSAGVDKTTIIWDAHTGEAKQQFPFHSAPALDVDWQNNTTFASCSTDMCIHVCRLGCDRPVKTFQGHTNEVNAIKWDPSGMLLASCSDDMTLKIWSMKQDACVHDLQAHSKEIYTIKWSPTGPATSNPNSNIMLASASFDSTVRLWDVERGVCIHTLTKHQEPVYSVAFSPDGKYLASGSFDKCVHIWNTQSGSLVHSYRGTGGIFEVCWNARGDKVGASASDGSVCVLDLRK
The reader will find reported Inhibition percent values listed item by item below.
// return numeric value only (unit: %, not printed)

>>> observed_value("CC1(C)Oc2ccccc2[C@H]2O[C@H]3CCN(C(=O)c4cccc(OCC(=O)O)c4)C[C@@H]3C[C@@H]21")
2.74
>>> observed_value("COC(C)(C)C(=O)N1CCC2(CC1)Oc1c(O)cccc1[C@H]1OCCC[C@@H]12")
-2.79
>>> observed_value("CC(=O)NC(F)(Cc1ccccc1)C(=O)N1CCC(Cc2cccc3cccnc23)CC1 (stereo not shown)")
15.90

Exercise: Dear colleague, I am looking for the recorded Inhibition percent of the following compound: CC(=O)N[C@@]12CN(CC(=O)Nc3cccc(C(F)(F)F)c3)CC[C@@H]1[C@@H](c1ccccc1)N(C)C2
Solution: -0.29

Exercise: Dear colleague, I am looking for the recorded Inhibition percent of the following compound: O=C(c1ccnc(Cc2cccc(F)c2)c1)N1CCC[C@]2(C[C@@H](Oc3ccc(F)cc3)CO2)C1
Solution: 5.07

Exercise: Dear colleague, I am looking for the recorded Inhibition percent of the following compound: CN1CCC(Cc2ccc(F)cc2)(C(=O)N2CCC(Cc3cccc4cccnc34)CC2)CC1
Solution: -1.95

Exercise: Dear colleague, I am looking for the recorded Inhibition percent of the following compound: COCCN1CC=CCC2(CCN(CC(=O)N(Cc3ccccc3)C(C)C)CC2)C1=O
Solution: -2.37

* * *

test system: PRKACA-PRKAR2A interaction (SmBiT-PRKACA / LgBiT-PRKAR2A), protein kinase A; design: NanoLuc complementation counter-screen in cell extract, PRKACA with PRKAR2A, loss of luminescence, detects NanoLuc interference; conditions: counter-screen for NanoLuc interference; 0.5 h, 20 µM; inhibitor
Use yes when the recorded Inh (PKA) is no lower than 20%; use no when it is lower.

Observe how each entry below is paired with its result.
>>> qualitative_label("CC(=O)[C@]1(N)Cc2c(O)c3c(c(O)c2[C@@H](O[C@H]2C[C@H](O)[C@H](O)CO2)C1)C(=O)c1ccccc1C3=O [UM0141961:01, Amrubicin]")
"yes"
>>> qualitative_label("N[C@@H]1CCCN(c2c(/C=C3\\SC(=O)NC3=O)cccc2-c2ccccc2)C1 [UM0141655:01, AZD1208]")
"yes"
>>> qualitative_label("O=C(NC[C@H]1CN(c2ccc(N3CCOCC3=O)cc2)C(=O)O1)c1ccc(Cl)s1 [UM0141794:01, Rivaroxaban]")
"no"
>>> qualitative_label("CC(C)(C)c1cc(NC(=O)Nc2ccc(-c3cn4c(n3)sc3cc(OCCN5CCOCC5)ccc34)cc2)no1 [UM0130989:03, Quizartinib (AC220)]")
"no"

Exercise: Form field: Inh (PKA) at least 20%? Entry: CC1(C)O[C@@H]2[C@@H](CO[C@@]3(COS(N)(=O)=O)OC(C)(C)O[C@@H]23)O1 [UM0141808:01, Topiramate]
Solution: no

* * *

tested on: PRKACA-PRKAR2A interaction (SmBiT-PRKACA / LgBiT-PRKAR2A), protein kinase A; parameters: NanoLuc complementation counter-screen in cell extract, PRKACA with PRKAR2A, loss of luminescence, detects NanoLuc interference; conditions: counter-screen for NanoLuc interference; 0.5 h, 20 µM; inhibitor
The reader will find reported Inh (PKA) values listed item by item below.
# answer = value followed by unit

Consider the worked cases shown below.
>>> observed_value("CC(=O)O/N=C1/C(c2c(O)[nH]c3cc(Br)ccc23)=Nc2ccccc21")
"40.08%"
>>> observed_value("C[N+](C)(C)CCOC(=O)CCC(=O)OCC[N+](C)(C)C [UM0142319:01, Succinylcholine Chloride Dihydrate]")
"-1.734%"
>>> observed_value("CC1=C2C[C@H]3[C@@H](CC=C4C[C@@H](O)CC[C@@]43C)[C@@H]2CC[C@]12O[C@@H]1C[C@H](C)CN[C@H]1[C@H]2C")
"2.445%"
>>> observed_value("Cc1cn(-c2cc(NC(=O)c3ccc(C)c(Nc4nccc(-c5cccnc5)n4)c3)cc(C(F)(F)F)c2)cn1")
"17.26%"
>>> observed_value("C=CCn1c(=O)c2cnc(Nc3ccc(N4CCN(C)CC4)cc3)nc2n1-c1cccc(C(C)(C)O)n1")
"7.841%"

Exercise: Short answer please: Inh (PKA), PRKACA-PRKAR2A interaction (SmBiT-PRKACA / LgBiT-PRKAR2A), protein kinase A, entry O=C(Nc1cccnc1)c1cc(-c2ccnc(F)c2)ccc1OCc1ccccc1 [UM0142641:01, GSK2578215A]
Solution: 10.96%
